ASSAY: Pharmacokinetic experiment in mice (single PO or IV administration)
DETAILS: male, ICR, mouse, plasma, iv, 2 mg/kg
// half-life lookup, one value per entry
VALUE KIND: half-life

>>> observed_measurement("[2H]C([2H])([2H])C([2H])([2H])[C@@]12CC[C@@H](CN(c3nc(OC[C@@]45CCCN4C/C(=C\\F)C5)nc4c(F)c(-c5ccc(F)c6sc(N)c(C#N)c56)c(Cl)cc34)C1)N2 (single isomer, unassigned)")
"13.7 h"
>>> observed_measurement("[2H]C([2H])([2H])C([2H])([2H])[C@@]12CC[C@@H](CN(c3nc(OC[C@@]45CCCN4C/C(=C\\F)C5)nc4c(F)c(-c5cc(N)cc6ccc(F)c(C#C)c56)ncc34)C1)N2")
"5.9 h"
>>> observed_measurement("C#Cc1c(F)ccc2cc(O)cc(-c3ncc4c(N5C[C@H]6CC[C@@H](C5)N6)nc(OC[C@@]56CCCN5C/C(=C/F)C6)nc4c3F)c12 [Reference Compound 2, reference compound]")
"14.1 h"
>>> observed_measurement("[2H]C([2H])([2H])C([2H])([2H])[C@@]12CC[C@@H](CN(c3nc(OC[C@@]45CCCN4C/C(=C\\F)C5)nc4c(F)c(-c5cc(O)cc6ccc(F)c(C#C)c56)ncc34)C1)N2")
"6.6 h"
>>> observed_measurement("C#Cc1c(F)ccc2cc(O)cc(-c3ncc4c(N5C[C@@H]6CC[C@](C7CC7)(C5)N6)nc(OC[C@@]56CCCN5C/C(=C\\F)C6)nc4c3F)c12")
"6.3 h"

---

ASSAY: in vivo
DETAILS: male, ICR, mouse, po, 10 mg/kg
VALUE KIND: half-life (h)

>>> observed_measurement("C#Cc1c(F)ccc2cc(N)cc(-c3ncc4c(N5C[C@H]6CC[C@@H](C5)N6)nc(OC[C@@]56CCCN5C/C(=C\\F)C6)nc4c3F)c12 [Reference Compound 4]")
4.6

---

ASSAY: Pharmacokinetic experiment in mice (single PO or IV administration)
DETAILS: male, ICR, mouse, plasma, iv, 2 mg/kg
VALUE KIND: Cmax

>>> observed_measurement("C#Cc1c(F)ccc2cc(O)cc(-c3ncc4c(N5C[C@H]6CC[C@@H](C5)N6)nc(OC[C@@]56CCCN5C/C(=C\\F)C6)nc4c3F)c12 [Reference Compound 1, reference compound]")
"1690 ng/mL"
>>> observed_measurement("[2H]C([2H])([2H])[C@@]12CC[C@@H](CN(c3nc(OC[C@@]45CCCN4C/C(=C\\F)C5)nc4c(F)c(-c5cc(N)cc6ccc(F)c(C#C)c56)ncc34)C1)N2")
"68.9 ng/mL"
>>> observed_measurement("[2H]C([2H])([2H])C([2H])([2H])[C@@]12CC[C@@H](CN(c3nc(OC[C@@]45CCCN4C/C(=C\\F)C5)nc4c(F)c(-c5ccc(F)c6sc(N)c(C#N)c56)c(Cl)cc34)C1)N2 (single isomer, unassigned)")
"179 ng/mL"

---

ASSAY: Pharmacokinetic experiment in mice (single PO or IV administration)
DETAILS: male, ICR, mouse, plasma, po, 10 mg/kg
half-life overview
VALUE KIND: half-life (h)

>>> observed_measurement("C#Cc1c(F)ccc2cc(O)cc(-c3ncc4c(N5C[C@@H]6CC[C@](C7CC7)(C5)N6)nc(OC[C@@]56CCCN5C/C(=C\\F)C6)nc4c3F)c12")
5.6
>>> observed_measurement("C#Cc1c(F)ccc2cc(O)cc(-c3ncc4c(N5C[C@H]6CC[C@@H](C5)N6)nc(OC[C@@]56CCCN5C/C(=C\\F)C6)nc4c3F)c12 [Reference Compound 1, reference compound]")
2.6
>>> observed_measurement("[2H]C([2H])([2H])[C@@]12CC[C@@H](CN(c3nc(OC[C@@]45CCCN4C/C(=C\\F)C5)nc4c(F)c(-c5cc(N)cc6ccc(F)c(C#C)c56)ncc34)C1)N2")
9.1
>>> observed_measurement("C#Cc1c(F)ccc2cc(O)cc(-c3ncc4c(N5C[C@H]6CC[C@@H](C5)N6)nc(OC[C@@]56CCCN5C/C(=C/F)C6)nc4c3F)c12 [Reference Compound 2, reference compound]")
2.3
>>> observed_measurement("[2H]C([2H])([2H])C([2H])([2H])[C@@]12CC[C@@H](CN(c3nc(OC[C@@]45CCCN4C/C(=C\\F)C5)nc4c(F)c(-c5cc(N)cc6ccc(F)c(C#C)c56)ncc34)C1)N2")
2.9

---

System: AsPC-1
ASSAY: Anti-proliferative 2D CTG assay, AsPC-1
Assay type: cell-based
DETAILS: Homo sapiens, ASPC1, 96 h, AsPC-1 cells, 4 days incubation, read-out: AsPC-1 cell IC50
Below, each entry is listed alongside its reported IC50.
VALUE KIND: IC50 (nM)

>>> observed_measurement("[2H]C([2H])([2H])C([2H])([2H])[C@@]12CC[C@@H](CN(c3nc(OC[C@@]45CCCN4C/C(=C\\F)C5)nc4c(F)c(-c5cc(O)cc6ccc(F)c(C#C)c56)ncc34)C1)N2")
16.7
>>> observed_measurement("[2H]C([2H])([2H])C([2H])([2H])[C@@]12CC[C@@H](CN(c3nc(OC[C@@]45CCCN4CC(=C(F)F)C5)nc4c(F)c(-c5cc(O)cc6ccc(F)c(C#C)c56)ncc34)C1)N2")
46.3
>>> observed_measurement("[2H]C([2H])([2H])OC[C@@]12CC[C@@H](CN(c3nc(OC[C@@]45CCCN4C/C(=C/F)C5)nc4c(F)c(-c5cc(O)cc6ccc(F)c(C#C)c56)ncc34)C1)N2")
59.3
>>> observed_measurement("[2H]C([2H])([2H])OC[C@@]12CC[C@@H](CN(c3nc(OC[C@@]45CCCN4C/C(=C\\F)C5)nc4c(F)c(-c5cc(O)cc6ccc(F)c(C#C)c56)ncc34)C1)N2")
37.9
>>> observed_measurement("C#Cc1c(F)ccc2cc(O)cc(-c3ncc4c(N5CC6CCC(C5)N6)nc(OC[C@@]56CCCN5C[C@H](F)C6)nc4c3F)c12 [Positive Compound 1, reference compound]")
34.9

---

ASSAY: Pharmacokinetic experiment in mice (single PO or IV administration)
DETAILS: male, ICR, mouse, plasma, po, 10 mg/kg
As shown below, each of these compounds has a reported bioavailability value.
VALUE KIND: bioavailability

>>> observed_measurement("[2H]C([2H])([2H])C([2H])([2H])[C@@]12CC[C@@H](CN(c3nc(OC[C@@]45CCCN4C/C(=C\\F)C5)nc4c(F)c(-c5cc(O)cc6ccc(F)c(C#C)c56)ncc34)C1)N2")
"41.1%"
>>> observed_measurement("[2H]C([2H])([2H])OC[C@@]12CC[C@@H](CN(c3nc(OC[C@@]45CCCN4C/C(=C\\F)C5)nc4c(F)c(-c5cc(O)cc6ccc(F)c(C#C)c56)ncc34)C1)N2")
"14.6%"
>>> observed_measurement("[2H]C([2H])([2H])C([2H])([2H])[C@@]12CC[C@@H](CN(c3nc(OC[C@@]45CCCN4C/C(=C\\F)C5)nc4c(F)c(-c5ccc(F)c6sc(N)c(C#N)c56)c(Cl)cc34)C1)N2 (single isomer, unassigned)")
"33.5%"

---

ASSAY: Pharmacokinetic experiment in mice (single PO or IV administration)
DETAILS: male, ICR, mouse, plasma, po, 10 mg/kg
Decide by AUC: equal to or exceeding 40 ng·h/mL means Yes, less means No.

>>> classification("C#Cc1c(F)ccc2cc(O)cc(-c3ncc4c(N5C[C@@H]6CC[C@](C7CC7)(C5)N6)nc(OC[C@@]56CCCN5C/C(=C\\F)C6)nc4c3F)c12")
"Yes"
>>> classification("[2H]C([2H])([2H])C([2H])([2H])[C@@]12CC[C@@H](CN(c3nc(OC[C@@]45CCCN4C/C(=C\\F)C5)nc4c(F)c(-c5cc(O)cc6ccc(F)c(C#C)c56)ncc34)C1)N2")
"Yes"
>>> classification("C#Cc1c(F)ccc2cc(O)cc(-c3ncc4c(N5C[C@H]6CC[C@@H](C5)N6)nc(OC[C@@]56CCCN5CC(=C)C6)nc4c3F)c12 [Reference Compound 3, reference compound]")
"No"
>>> classification("[2H]C([2H])([2H])OC[C@@]12CC[C@@H](CN(c3nc(OC[C@@]45CCCN4C/C(=C\\F)C5)nc4c(F)c(-c5cc(O)cc6ccc(F)c(C#C)c56)ncc34)C1)N2")
"Yes"

---

ASSAY: in vivo
DETAILS: male, ICR, mouse, iv, 2 mg/kg
VALUE KIND: Cmax (ng/mL)

>>> observed_measurement("C#Cc1c(F)ccc2cc(N)cc(-c3ncc4c(N5C[C@H]6CC[C@@H](C5)N6)nc(OC[C@@]56CCCN5C/C(=C\\F)C6)nc4c3F)c12 [Reference Compound 4]")
104
